EXPERIMENT_DESCRIPTION: The drug is tested on WLS-170 corresponding to human gut metagenome with ENA study accession number: PRJEB37062 and ENA sample accession number: ERS12561762 for biotransformation under anaerobic condition. The drug concentrations were measured over 9 timepoints collected between 0 and 24 hours of incubation by liquid-chromatography-coupled mass spectrometry (LC–MS); note: call rule not given here
MEASUREMENT_CONDITIONS: 2 µM
RECORDED_METRIC: Bacterial Biotransformation

MOLECULE: CC(=O)Nc1ccc(OC(C)=O)cc1 [DIACETAMATE]
Bacterial Biotransformation: Compound metabolized
--
MOLECULE: O=C(O)CCC(=O)O.O=C(O[C@H]1CN2CCC1CC2)N1CCc2ccccc2[C@@H]1c1ccccc1 [SOLIFENACIN SUCCINATE]
Bacterial Biotransformation: Compound NOT metabolized
--
MOLECULE: CC[C@H](C)C(=O)O[C@H]1CCC=C2C=C[C@H](C)[C@H](CC[C@@H]3C[C@@H](O)CC(=O)O3)[C@H]21
Bacterial Biotransformation: Compound metabolized
--
MOLECULE: CC(=O)OCC(CCn1cnc2cnc(N)nc21)COC(C)=O
Bacterial Biotransformation: Compound metabolized
--
MOLECULE: N=C(N)NC(=O)Cc1c(Cl)cccc1Cl
Bacterial Biotransformation: Compound NOT metabolized

-- ask Any idea what its Bacterial Biotransformation is? The molecule is Nc1nnc(-c2cccc(Cl)c2Cl)c(N)n1
-- reply Compound metabolized

-- ask Item under review: CC(C)(C)N.CCC[C@H](N[C@@H](C)C(=O)N1[C@H](C(=O)O)C[C@@H]2CCCC[C@@H]21)C(=O)OCC . Reported Bacterial Biotransformation?
-- reply Compound metabolized

-- ask Consider the molecule CCN(CC)C(=O)C1(c2ccccc2)CC1CN (configuration not stated) and give its measured Bacterial Biotransformation.
-- reply Compound metabolized

-- ask Which value of Bacterial Biotransformation has been reported for CC(C)(C)NC(=O)[C@H]1CC[C@H]2[C@@H]3CC[C@H]4NC(=O)C=C[C@]4(C)[C@H]3CC[C@]12C [FINASTERIDE] in the records?
-- reply Compound metabolized

-- ask Recorded Bacterial Biotransformation of CN1CCC(=C2c3ccccc3CC(=O)c3sccc32)CC1.O=C(O)/C=C/C(=O)O [KETOTIFEN FUMARATE] , please.
-- reply Compound metabolized

* * *

EXPERIMENT_DESCRIPTION: The drug is tested on WLS-052 corresponding to human gut metagenome with ENA study accession number: PRJEB37062 and ENA sample accession number: ERS12561747 for biotransformation under anaerobic condition. The drug concentrations were measured over 9 timepoints collected between 0 and 24 hours of incubation by liquid-chromatography-coupled mass spectrometry (LC–MS)
MEASUREMENT_CONDITIONS: 2 µM
RECORDED_METRIC: Bacterial Biotransformation

MOLECULE: CC(N)C12CC3CC(CC(C3)C1)C2 (stereo not drawn)
Bacterial Biotransformation: Compound NOT metabolized

MOLECULE: C#C[C@]1(OC(C)=O)CC[C@H]2[C@@H]3CCC4=CC(=O)CC[C@@H]4[C@H]3CC[C@@]21C [NORETHINDRONE ACETATE]
Bacterial Biotransformation: Compound metabolized

MOLECULE: N#Cc1ccc2[nH]cc(CCCCN3CCN(c4ccc5oc(C(N)=O)cc5c4)CC3)c2c1
Bacterial Biotransformation: Compound metabolized

MOLECULE: CCN(C(C)=O)c1cccc(-c2ccnc3c(C#N)cnn23)c1
Bacterial Biotransformation: Compound metabolized

MOLECULE: CC(C)(C)N.CCC[C@H](N[C@@H](C)C(=O)N1[C@H](C(=O)O)C[C@@H]2CCCC[C@@H]21)C(=O)OCC
Bacterial Biotransformation: Compound NOT metabolized

-- ask Which Bacterial Biotransformation value is on record for CN1CCC(=C2c3ccccc3CC(=O)c3sccc32)CC1.O=C(O)/C=C/C(=O)O [KETOTIFEN FUMARATE] ?
-- reply Compound NOT metabolized

-- ask Give the measured Bacterial Biotransformation of COCCCC/C(=N\OCCN)c1ccc(C(F)(F)F)cc1.O=C(O)/C=C\C(=O)O [FLUVOXAMINE MALEATE] .
-- reply Compound NOT metabolized

-- ask Need Bacterial Biotransformation of COC(=O)[C@H](c1ccccc1Cl)N1CCc2sccc2C1.O=S(=O)(O)O [CLOPIDOGREL BISULFATE] , thanks.
-- reply Compound metabolized

-- ask Endpoint output: Bacterial Biotransformation of OCCN(CCO)c1nc(N2CCCCC2)c2nc(N(CCO)CCO)nc(N3CCCCC3)c2n1 . Value?
-- reply Compound metabolized

-- ask Quick check: Bacterial Biotransformation of O=C1CN2Cc3c(ccc(Cl)c3Cl)N=C2N1 [ANAGRELIDE] ?
-- reply Compound metabolized

-- ask Dear colleague, I am looking for the recorded Bacterial Biotransformation of the following molecule: CCS(=O)(=O)CCn1c([N+](=O)[O-])cnc1C
-- reply Compound metabolized

-- ask Endpoint output: Bacterial Biotransformation of COc1ccc2c(c1)c(CC(=O)O)c(C)n2C(=O)c1ccc(Cl)cc1 . Value?
-- reply Compound metabolized

-- ask Name the recorded Bacterial Biotransformation for CC(C)(C)NCC(O)c1cc(Cl)c(N)c(Cl)c1 (stereo not drawn) .
-- reply Compound NOT metabolized

-- ask Field request: Bacterial Biotransformation | item: CC(NC(C)(C)C)C(=O)c1cccc(Cl)c1 (stereo not drawn)
-- reply Compound NOT metabolized

-- ask GET /values?readout=Bacterial Biotransformation&item= CN1CCC(OC(c2ccccc2)c2ccccc2)CC1
-- reply Compound NOT metabolized

-- ask Query: Bacterial Biotransformation; subject: CSc1ccc2c(c1)C(N1CCN(C)CC1)Cc1ccccc1S2.O=C(O)/C=C\C(=O)O (stereo not drawn)
-- reply Compound metabolized

-- ask Which Bacterial Biotransformation is reported for this molecule? CC[C@H](C)C(=O)O[C@H]1CCC=C2C=C[C@H](C)[C@H](CC[C@@H]3C[C@@H](O)CC(=O)O3)[C@H]21
-- reply Compound metabolized

-- ask Recorded Bacterial Biotransformation of COc1ccc(/C=C/C(=O)Nc2ccccc2C(=O)O)cc1OC , please.
-- reply Compound metabolized
